target: Ribosomal protein S6 kinase alpha-6 (Homo sapiens) (UniProt Q9UK32); details: at 1 µM;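 note: each value is a mean inhibition of RSK4 from a GSK PKIS panel screen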
Sequence (Q9UK32 whole entry): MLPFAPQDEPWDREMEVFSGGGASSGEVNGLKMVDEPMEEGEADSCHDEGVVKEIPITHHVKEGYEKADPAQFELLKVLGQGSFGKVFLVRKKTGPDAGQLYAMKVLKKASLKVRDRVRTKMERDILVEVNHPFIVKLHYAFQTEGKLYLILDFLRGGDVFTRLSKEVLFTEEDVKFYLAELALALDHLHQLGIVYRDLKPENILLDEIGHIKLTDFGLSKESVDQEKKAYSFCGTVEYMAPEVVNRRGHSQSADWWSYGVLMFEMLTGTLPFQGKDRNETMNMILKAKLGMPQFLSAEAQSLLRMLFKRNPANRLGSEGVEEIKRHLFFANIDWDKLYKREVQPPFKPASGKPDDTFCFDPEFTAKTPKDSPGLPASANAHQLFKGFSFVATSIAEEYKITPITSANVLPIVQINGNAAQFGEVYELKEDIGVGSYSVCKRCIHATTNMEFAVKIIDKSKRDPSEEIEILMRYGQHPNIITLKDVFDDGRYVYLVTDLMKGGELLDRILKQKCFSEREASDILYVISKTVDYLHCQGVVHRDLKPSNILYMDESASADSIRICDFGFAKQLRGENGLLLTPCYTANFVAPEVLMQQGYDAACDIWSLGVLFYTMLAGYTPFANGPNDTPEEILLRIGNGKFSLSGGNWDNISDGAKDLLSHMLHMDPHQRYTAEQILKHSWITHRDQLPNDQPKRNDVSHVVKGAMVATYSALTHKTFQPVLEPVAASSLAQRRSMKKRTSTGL
Quick reference for inhibition among some molecules
Please state the number and follow it with the unit.

The molecule listed as "CCOc1nccc2c1nc(-c1nonc1N)n2CC" shows inhibition equal to 4.02%

Record summary for "O=C1Nc2ccc(-c3cccnc3)cc2C1=Cc1cc(Br)c(O)c(Br)c1" : reported inhibition = 5.51%

Entry "Nc1nccc(C#Cc2cncnc2Nc2ccc(OCc3cccc(F)c3)c(Cl)c2)n1" — recorded inhibition = 1%

Recorded result, "CC(C)c1ccc2c(c1)NC(=O)/C2=N/Nc1ccc(S(N)(=O)=O)cc1" , inhibition: 0.17%

Next:
Query "Cc1nc(-c2ccccc2)n2nc(NCCCN3CCOCC3)ncc12" yields inhibition of 12.8%

// inhibition value for "OCc1ccc(-c2nc(-c3ccccn3)c(-c3ccc4c(c3)OCO4)[nH]2)cc1" : 2.9%

Lookup result for "NS(=O)(=O)c1cccc(-c2cc3ccncc3cc2OCc2ccccc2)c1" ; measured inhibition: 3.01%

Kindly note the recorded inhibition for "CN(C)C(=O)O[C@H]1CN[C@H](C#Cc2cc3ncnc(Nc4ccc(OCc5cccc(F)c5)c(Cl)c4)c3s2)C1" , which is 1.62%

Note to self: inhibition recorded for "NC(=O)c1cccc(Nc2nccc(Nc3cccc(F)c3)n2)c1" was 6.03%

The recorded inhibition for entry "NS(=O)(=O)c1ccc(NC=C2C(=O)Nc3ccc4ncsc4c32)cc1" equals 77.4%

// "Cc1ccc2c(-c3ccnc(Nc4cccc(C(F)(F)F)c4)n3)c(-c3ccccc3)nn2n1" : inhibition value = 2.56%

----------
molecular target: Tyrosine-protein kinase Fgr (Homo sapiens) (UniProt P09769); details: at 1 µM;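 note: value reported as mean kinase inhibition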
Sequence (P09769 2-529 limits assumed): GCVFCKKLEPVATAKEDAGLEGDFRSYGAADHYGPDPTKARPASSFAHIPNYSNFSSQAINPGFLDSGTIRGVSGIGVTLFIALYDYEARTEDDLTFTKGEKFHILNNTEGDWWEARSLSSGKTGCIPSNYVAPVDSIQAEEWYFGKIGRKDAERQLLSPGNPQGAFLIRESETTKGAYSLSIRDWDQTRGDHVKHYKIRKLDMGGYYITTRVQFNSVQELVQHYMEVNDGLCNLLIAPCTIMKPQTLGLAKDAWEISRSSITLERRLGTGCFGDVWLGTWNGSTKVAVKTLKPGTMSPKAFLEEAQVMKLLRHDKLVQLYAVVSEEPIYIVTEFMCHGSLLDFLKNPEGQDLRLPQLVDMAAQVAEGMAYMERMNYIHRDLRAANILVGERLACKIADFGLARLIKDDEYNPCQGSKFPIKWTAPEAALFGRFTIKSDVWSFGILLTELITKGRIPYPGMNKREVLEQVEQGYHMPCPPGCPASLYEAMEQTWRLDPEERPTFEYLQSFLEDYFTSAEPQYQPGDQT
inhibition: recorded values
Kindly answer with a numeric value in %, unit omitted.

Would you please look over these solved cases?
Value of inhibition reported for the compound "ON=C1CCc2cc(-c3nc(C4CCNCC4)[nH]c3-c3ccncc3)ccc21" is 2.99

The measured inhibition associated with "Nc1nccc(C#Cc2cncnc2Nc2ccc(OCc3cccc(F)c3)c(Cl)c2)n1" reads 4.81

Form field inhibition, entry "OCc1ccc(-c2nc(-c3ccccn3)c(-c3ccc4c(c3)OCO4)[nH]2)cc1" : 8.26

Reported inhibition for "COc1cccc(-n2nc(C)c3c(N/N=C(\C)c4ccncc4)ncnc32)c1" was 4.36

For "COC(=O)Nc1nc2cc(Oc3ccc(NC(=O)Nc4cccc(Br)c4)cc3)ccc2[nH]1" the compound record lists inhibition as 2.98

Continuing:
The recorded inhibition for "Cc1ccc(O)cc1Nc1ccnc2ccc(S(C)(=O)=O)cc12" is 81.8

Item: "Nc1nccc(-c2c(-c3ccc(F)cc3)ncn2CCCN2CCOCC2)n1" | inhibition: 3.22

----------
tested on: Serine/threonine-protein kinase B-raf (Homo sapiens), P15056 [V600E]; settings: at 0.1 µM;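 note: mean inhibition of the BRAF V599E mutant, from GSK PKIS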
Sequence (P15056 whole entry V600E): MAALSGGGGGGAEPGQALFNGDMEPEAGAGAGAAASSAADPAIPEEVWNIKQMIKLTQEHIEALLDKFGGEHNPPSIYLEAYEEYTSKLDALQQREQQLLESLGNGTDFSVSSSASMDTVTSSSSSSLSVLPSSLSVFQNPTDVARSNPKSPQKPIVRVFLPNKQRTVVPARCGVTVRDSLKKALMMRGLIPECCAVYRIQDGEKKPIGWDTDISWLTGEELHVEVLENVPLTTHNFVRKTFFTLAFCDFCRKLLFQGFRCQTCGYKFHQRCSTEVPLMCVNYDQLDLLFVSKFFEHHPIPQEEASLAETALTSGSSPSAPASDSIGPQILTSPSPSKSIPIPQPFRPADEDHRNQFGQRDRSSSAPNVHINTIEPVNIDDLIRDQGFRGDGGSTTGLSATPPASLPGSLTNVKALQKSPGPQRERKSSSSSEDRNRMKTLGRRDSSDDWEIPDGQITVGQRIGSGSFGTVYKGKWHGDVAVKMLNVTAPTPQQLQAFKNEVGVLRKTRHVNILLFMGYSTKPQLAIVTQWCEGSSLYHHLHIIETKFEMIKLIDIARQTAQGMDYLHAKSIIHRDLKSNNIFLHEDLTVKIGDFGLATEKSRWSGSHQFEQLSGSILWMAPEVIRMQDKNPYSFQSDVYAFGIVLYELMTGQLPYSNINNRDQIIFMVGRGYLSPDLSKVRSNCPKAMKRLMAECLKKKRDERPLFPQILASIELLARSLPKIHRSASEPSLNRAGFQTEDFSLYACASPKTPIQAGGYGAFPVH
Description: GSK_PKIS: BRAF (V599E mutant) mean inhibition at 0.1 uM [Nanosyn]
Experimental readout: inhibition (%)
# output: bare number, implied unit %

Given the compound "CCn1c(-c2nonc2N)nc2ccc(F)cc21" and test system Serine/threonine-protein kinase B-raf (Homo sapiens), P15056 [V600E], the measured inhibition is 9.84

The measured inhibition that "CN(C)C(=O)O[C@H]1CN[C@H](C#Cc2cc3ncnc(Nc4ccc(OCc5cccc(F)c5)c(Cl)c4)c3s2)C1" showed for Serine/threonine-protein kinase B-raf (Homo sapiens), P15056 [V600E] is 3.55

Readout inhibition for "Nc1nccc(-c2c(-c3ccc(F)cc3)nn3cc(C(F)(F)F)ccc23)n1" , test system Serine/threonine-protein kinase B-raf (Homo sapiens), P15056 [V600E], was 0.14

***
Readout inhibition for "Cc1cc(-c2ccccn2)cc(C)c1/C=C/c1cncc(-c2nn[nH]n2)c1" , test system Serine/threonine-protein kinase B-raf (Homo sapiens), P15056 [V600E], was 4.7

I looked up "O=C1Nc2ccccc2/C1=C/Nc1ccc2[nH]c(=O)[nH]c2c1" and its inhibition for Serine/threonine-protein kinase B-raf (Homo sapiens), P15056 [V600E] was 8.7

Per the reported Serine/threonine-protein kinase B-raf (Homo sapiens), P15056 [V600E] data, "O=S(=O)(CCOCc1ccc(-c2ccc3ncnc(Nc4ccc(OCc5cccc(F)c5)c(Cl)c4)c3c2)o1)c1ccccc1" has inhibition of 2.43

Observed inhibition, Serine/threonine-protein kinase B-raf (Homo sapiens), P15056 [V600E], "Cc1nc(-c2ccccc2)n2nc(NCCCN3CCOCC3)ncc12" : 4.13

Record "CN(C)CCCn1c(-c2nonc2N)nc2cnccc21" has Serine/threonine-protein kinase B-raf (Homo sapiens), P15056 [V600E] inhibition equal to 5.51

----------
target: Dual specificity tyrosine-phosphorylation-regulated kinase 1B (Homo sapiens) (UniProt Q9Y463); details: at 0.1 µM;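 note: values are mean percent inhibition of DYRK1B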
Sequence (Q9Y463 whole entry, looked up): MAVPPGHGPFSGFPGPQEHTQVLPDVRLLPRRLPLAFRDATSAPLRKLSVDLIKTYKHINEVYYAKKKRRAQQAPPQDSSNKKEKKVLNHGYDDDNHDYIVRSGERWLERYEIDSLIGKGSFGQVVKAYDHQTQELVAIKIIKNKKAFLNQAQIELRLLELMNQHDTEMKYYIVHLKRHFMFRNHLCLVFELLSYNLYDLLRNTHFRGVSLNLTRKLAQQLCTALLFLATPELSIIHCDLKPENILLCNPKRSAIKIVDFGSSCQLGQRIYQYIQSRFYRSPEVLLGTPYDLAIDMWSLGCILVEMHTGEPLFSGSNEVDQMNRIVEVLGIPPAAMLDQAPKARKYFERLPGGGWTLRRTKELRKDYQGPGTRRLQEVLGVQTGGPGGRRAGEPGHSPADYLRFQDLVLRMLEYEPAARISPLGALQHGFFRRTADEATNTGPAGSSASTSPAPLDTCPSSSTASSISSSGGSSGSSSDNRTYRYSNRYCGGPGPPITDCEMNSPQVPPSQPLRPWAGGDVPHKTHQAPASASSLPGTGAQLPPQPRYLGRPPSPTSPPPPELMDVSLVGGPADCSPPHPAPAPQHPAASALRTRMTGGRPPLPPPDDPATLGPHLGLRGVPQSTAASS
Each record here notes measured inhibition.
# value in %; strip the unit string

Check out these entries, answers already filled in.
inhibition measured on "CS(=O)(=O)Nc1cccc(-c2ccc3c(NC(=O)C4CC4)n[nH]c3c2)c1" = -0.36

// inhibition lookup, compound = "CCOc1nccc2c1nc(-c1nonc1N)n2CC" , result: 0.32

Data point: "Nc1nccc(-c2c(-c3ccc(F)cc3)nn3cc(C(F)(F)F)ccc23)n1" ; inhibition = -1.44

Briefly, inhibition measured for "CCn1c(-c2nonc2N)nc2ccc(F)cc21" : -0.23

"O=S(=O)(CCOCc1ccc(-c2ccc3ncnc(Nc4ccc(OCc5cccc(F)c5)c(Cl)c4)c3c2)o1)c1ccccc1" yielded inhibition of -0.1

Please fill in: inhibition reported for "Cc1ccc(Nc2ccnc(Nc3cccc(C(N)=O)c3)n2)cc1O" = -1.03

Others:
# inhibition of "CC(C)c1ccc2c(c1)NC(=O)/C2=N/Nc1ccc(S(N)(=O)=O)cc1" = 3.56

----------
tested on: Proto-oncogene tyrosine-protein kinase receptor Ret (Homo sapiens), P07949 [Y791F]; settings: at 0.1 µM
Sequence (P07949 whole entry Y791F): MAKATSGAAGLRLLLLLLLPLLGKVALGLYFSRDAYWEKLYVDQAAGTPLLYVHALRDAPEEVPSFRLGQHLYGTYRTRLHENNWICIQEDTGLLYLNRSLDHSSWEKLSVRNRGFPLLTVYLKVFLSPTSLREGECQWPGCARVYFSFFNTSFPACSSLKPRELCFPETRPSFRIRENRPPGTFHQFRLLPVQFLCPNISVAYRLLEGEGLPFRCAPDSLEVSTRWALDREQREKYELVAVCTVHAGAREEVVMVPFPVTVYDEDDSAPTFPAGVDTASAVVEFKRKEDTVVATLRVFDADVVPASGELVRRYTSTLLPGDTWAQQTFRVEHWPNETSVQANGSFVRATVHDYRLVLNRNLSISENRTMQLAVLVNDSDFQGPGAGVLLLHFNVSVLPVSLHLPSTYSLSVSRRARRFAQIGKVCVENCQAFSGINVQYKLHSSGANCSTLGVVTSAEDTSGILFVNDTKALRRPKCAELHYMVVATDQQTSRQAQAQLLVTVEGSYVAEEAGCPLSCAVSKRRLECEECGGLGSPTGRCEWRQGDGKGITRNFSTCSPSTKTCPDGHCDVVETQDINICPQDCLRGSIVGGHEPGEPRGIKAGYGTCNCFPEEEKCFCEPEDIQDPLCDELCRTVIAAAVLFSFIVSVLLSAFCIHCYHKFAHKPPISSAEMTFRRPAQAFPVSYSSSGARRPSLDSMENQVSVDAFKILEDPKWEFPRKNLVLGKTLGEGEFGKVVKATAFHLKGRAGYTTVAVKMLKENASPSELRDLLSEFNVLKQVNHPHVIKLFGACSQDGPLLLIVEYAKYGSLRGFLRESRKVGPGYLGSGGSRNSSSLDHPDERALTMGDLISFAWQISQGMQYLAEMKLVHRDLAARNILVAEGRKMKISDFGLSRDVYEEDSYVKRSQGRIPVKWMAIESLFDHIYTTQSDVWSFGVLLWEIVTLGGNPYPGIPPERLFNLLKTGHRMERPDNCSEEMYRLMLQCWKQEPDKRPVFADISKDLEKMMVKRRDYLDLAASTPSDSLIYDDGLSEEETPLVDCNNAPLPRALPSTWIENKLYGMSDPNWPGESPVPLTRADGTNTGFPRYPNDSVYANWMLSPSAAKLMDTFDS
If the reported inhibition equals or exceeds 8%, assign condition met. If not, assign condition not met.

INPUT: Hello, I need to know if "FC(F)(F)c1ccc(-c2nn3ncccc3c2-c2ccnc(Nc3ccc4c(c3)OCCO4)n2)cc1" has measured inhibition not below 8%. Thanks!
OUTPUT: condition met

INPUT: Threshold query (inhibition >= 8%) on "COc1ccc(-c2nn3ncccc3c2-c2ccnc(Nc3cccc(C(F)(F)F)c3)n2)cc1"
OUTPUT: condition not met

INPUT: Tell me whether inhibition is at least 8% here: "CCS(=O)(=O)c1ccc(OC)c(Nc2nccc(N(C)c3ccc4c(C)n[nH]c4c3)n2)c1"
OUTPUT: condition met

INPUT: Identify whether the reported inhibition of the following molecule is 8% or greater: "NC(=O)c1cccc(Nc2nccc(Nc3cccc(F)c3)n2)c1"
OUTPUT: condition not met

INPUT: Say whether "c1ccc(Nc2ncc(-c3ccccc3)o2)cc1" shows inhibition of 8% or more.
OUTPUT: condition not met

Continuing:
INPUT: Is it the case that "CC(C)c1ccc2c(c1)NC(=O)/C2=N/Nc1ccc(S(N)(=O)=O)cc1" has inhibition reaching or exceeding 8%?
OUTPUT: condition not met

INPUT: Does "O=C(Nc1ccc(Oc2ccc3[nH]c(NC(=O)c4ccco4)nc3c2)cc1)Nc1cc(C(F)(F)F)ccc1F" have a reported inhibition of at least 8%?
OUTPUT: condition met

INPUT: Does the reported inhibition for "NS(=O)(=O)c1ccc(N/N=C2\C(=O)Nc3ccc(Cl)cc32)cc1" fall at or above the 8% mark?
OUTPUT: condition not met

INPUT: Determine whether this molecule has inhibition no lower than 8%: "CCn1c(-c2nonc2N)nc2c(C#CC(C)(C)O)nc(OCCNC)cc21"
OUTPUT: condition not met

----------
tested on: Platelet-derived growth factor receptor alpha (Homo sapiens), P16234 [D842V]; settings: at 1 µM
Sequence (P16234 whole entry D842V): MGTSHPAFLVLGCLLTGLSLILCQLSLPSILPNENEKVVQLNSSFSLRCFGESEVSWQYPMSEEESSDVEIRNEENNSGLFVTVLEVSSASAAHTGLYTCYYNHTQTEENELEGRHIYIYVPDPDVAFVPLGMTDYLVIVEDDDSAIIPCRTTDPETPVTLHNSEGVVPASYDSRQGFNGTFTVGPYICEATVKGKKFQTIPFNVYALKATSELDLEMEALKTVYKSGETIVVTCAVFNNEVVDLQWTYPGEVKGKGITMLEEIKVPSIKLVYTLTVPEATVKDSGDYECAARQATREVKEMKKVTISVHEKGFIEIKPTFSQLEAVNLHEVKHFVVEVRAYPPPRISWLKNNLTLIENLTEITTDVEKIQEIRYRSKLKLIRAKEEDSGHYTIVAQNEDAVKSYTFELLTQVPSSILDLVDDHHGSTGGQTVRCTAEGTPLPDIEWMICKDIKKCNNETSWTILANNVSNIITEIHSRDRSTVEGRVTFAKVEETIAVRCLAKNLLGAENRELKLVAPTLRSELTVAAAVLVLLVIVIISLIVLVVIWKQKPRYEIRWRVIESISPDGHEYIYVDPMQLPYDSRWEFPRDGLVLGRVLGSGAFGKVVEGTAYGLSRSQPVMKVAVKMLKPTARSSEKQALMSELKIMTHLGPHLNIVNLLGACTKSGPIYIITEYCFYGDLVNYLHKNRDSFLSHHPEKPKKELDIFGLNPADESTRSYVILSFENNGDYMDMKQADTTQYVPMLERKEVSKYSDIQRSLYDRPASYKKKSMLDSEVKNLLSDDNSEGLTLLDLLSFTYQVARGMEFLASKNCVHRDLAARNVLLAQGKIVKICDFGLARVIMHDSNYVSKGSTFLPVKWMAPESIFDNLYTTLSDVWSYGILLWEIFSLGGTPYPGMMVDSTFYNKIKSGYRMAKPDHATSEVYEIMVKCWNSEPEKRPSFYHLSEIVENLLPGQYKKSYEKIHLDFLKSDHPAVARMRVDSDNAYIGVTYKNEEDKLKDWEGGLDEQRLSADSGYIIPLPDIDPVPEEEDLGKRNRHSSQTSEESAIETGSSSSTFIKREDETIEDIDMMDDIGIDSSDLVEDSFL
Experimental readout: inhibition (%)
Value expressed in %; do not type the unit.

Lab note: "CCn1c(-c2nonc2N)nc2c(C#CC(C)(C)O)nc(OCCNC)cc21" gave inhibition of 17.5

Documented inhibition of "CCS(=O)(=O)c1ccc(OC)c(Nc2nccc(N(C)c3ccc4c(C)n[nH]c4c3)n2)c1" : 74.3

# molecule "Nc1ccc(C#Cc2cncnc2Nc2ccc(OCc3cccc(F)c3)c(Cl)c2)cc1" ; its inhibition = 2.86

Entry "Cc1ccc2c(-c3ccnc(Nc4cccc(C(F)(F)F)c4)n3)c(-c3ccccc3)nn2n1" — recorded inhibition = 38.4

Note: attention shifts to another entry.
GET /value?item= "Cc1ccc(O)cc1Nc1ccnc2ccc(S(C)(=O)=O)cc12" &field=inhibition returns 97.1

----------
target: Serine/threonine-protein kinase PAK 3 (Homo sapiens); details: at 0.1 µM;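 note: mean percent inhibition of PAK3, measured in a screen of the GSK published kinase inhibitor set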
Entries and their measured inhibition follow.
Please answer using the number first and the unit second.

"COc1cc2ncnc(Nc3ccc4c(cnn4Cc4ccccc4)c3)c2cc1OC" yielded inhibition of 2.02%

Please fill in: inhibition reported for "Cc1cc(Cl)cc2c1NC(=O)C2=NNc1ccc(S(N)(=O)=O)cc1" = 3.63%

So for "Cc1ccc2c(-c3ccnc(Nc4cccc(C(F)(F)F)c4)n3)c(-c3ccccc3)nn2n1" , the logged inhibition turned out to be 5.11%

Reported inhibition for "COC(=O)Nc1nc2cc(Oc3ccc(NC(=O)Nc4cccc(Br)c4)cc3)ccc2[nH]1" was 2.85%

Sure, the documented inhibition for "c1ccc(Cc2nc3ccc(Nc4ncnc5ccccc45)cc3[nH]2)cc1" is 3.68%

More entries:
Record summary for "Cc1ccc(C(=O)NC2CC2)cc1-c1ccc2[nH]ncc2c1" : reported inhibition = -4.8%

Given item "OCc1ccc(-c2nc(-c3ccccn3)c(-c3ccc4c(c3)OCO4)[nH]2)cc1" , the value recorded as its inhibition is 4.79%

Reported inhibition for "NS(=O)(=O)c1ccc(N/N=C2\C(=O)Nc3ccc(Cl)cc32)cc1" was 3.71%

get_value(item= "Nc1ccc(C#Cc2cncnc2Nc2ccc(OCc3cccc(F)c3)c(Cl)c2)cc1" , readout=inhibition) returns 3.57%

molecule "CCS(=O)(=O)c1ccc(OC)c(Nc2ncc(-c3cccc(OC)c3)o2)c1" , inhibition observed: 3.24%
